target: Thrombin (Homo sapiens, UniProt P00734); assay: thrombin inhibition activity assay (D.4), specific activity; format: biochemical; conditions: cysteine-PEGylated protein relative to wild type PN-1
REL TO WT, AFTER PEG MODIFICATION values, listed per item

{"molecule": "N304C (conjugate, UniProt P07093 20-398, looked up, variant N304C, PEG) Glia-derived nexin: SHFNPLSLEELGSNTGIQVFNQIVKSRPHDNIVISPHGIASVLGMLQLGADGRTKKQLAMVMRYGVNGVGKILKKINKAIVSKKNKDIVTVANAVFVKNASEIEVPFVTRNKDVFQCEVRNVNFEDPASACDSINAWVKNETRDMIDNLLSPDLIDGVLTRLVLVNAVYFKGLWKSRFQPENTKKRTFVAADGKSYQVPMLAQLSVFRCGSTSAPNDLWYNFIELPYHGESISMLIALPTESSTPLSAIIPHISTKTIDSWMSIMVPKRVQVILPKFTAVAQTDLKEPLKVLGITDMFDSSKACFAKITTGSENLHVSHILQKAKIEVSEDGTKASAATTAILIARSSPPWFIVDRPFLFFIRHNPTGAVLFMGQINKP", "REL TO WT, AFTER PEG MODIFICATION": 0.33}
{"molecule": "H252C (conjugate, UniProt P07093 20-398, looked up, variant H252C, PEG) Glia-derived nexin: SHFNPLSLEELGSNTGIQVFNQIVKSRPHDNIVISPHGIASVLGMLQLGADGRTKKQLAMVMRYGVNGVGKILKKINKAIVSKKNKDIVTVANAVFVKNASEIEVPFVTRNKDVFQCEVRNVNFEDPASACDSINAWVKNETRDMIDNLLSPDLIDGVLTRLVLVNAVYFKGLWKSRFQPENTKKRTFVAADGKSYQVPMLAQLSVFRCGSTSAPNDLWYNFIELPYHGESISMLIALPTESSTPLSAIIPCISTKTIDSWMSIMVPKRVQVILPKFTAVAQTDLKEPLKVLGITDMFDSSKANFAKITTGSENLHVSHILQKAKIEVSEDGTKASAATTAILIARSSPPWFIVDRPFLFFIRHNPTGAVLFMGQINKP", "REL TO WT, AFTER PEG MODIFICATION": 0.50}
{"molecule": "N85C (conjugate, UniProt P07093 20-398, looked up, variant N85C, PEG) Glia-derived nexin: SHFNPLSLEELGSNTGIQVFNQIVKSRPHDNIVISPHGIASVLGMLQLGADGRTKKQLAMVMRYGVNGVGKILKKINKAIVSKKCKDIVTVANAVFVKNASEIEVPFVTRNKDVFQCEVRNVNFEDPASACDSINAWVKNETRDMIDNLLSPDLIDGVLTRLVLVNAVYFKGLWKSRFQPENTKKRTFVAADGKSYQVPMLAQLSVFRCGSTSAPNDLWYNFIELPYHGESISMLIALPTESSTPLSAIIPHISTKTIDSWMSIMVPKRVQVILPKFTAVAQTDLKEPLKVLGITDMFDSSKANFAKITTGSENLHVSHILQKAKIEVSEDGTKASAATTAILIARSSPPWFIVDRPFLFFIRHNPTGAVLFMGQINKP", "REL TO WT, AFTER PEG MODIFICATION": 0.080}

The origin of these recorded values is patent US5766897A.
